# Tested on: MS2 coat protein
# TEST: apparent KD of MS2 coat protein, switch OFF state (with FMN for OFF switches, without FMN for ON switches); designed switch direction (-1 OFF switch, 1 ON switch): -1; higher = weaker reporter binding
# CONDITION_PARAMETERS: FMN input: 0 or 200 uM; Eterna round: R93 (includes R88 designs)
READOUT_LABEL: apparent KD of MS2 coat protein (µM)
Expressed in µM, but write only the number.

// solved cases for apparent KD of MS2 coat protein follow
Task: Param item = AAAGAUACAGGAUAUACAUGAGGAUCACCCAUGUUAGACCAAAAAUGGGAAAAAGAAAGUAGAAGGGUAUAAAA [Ex 3 May 35] ; retrieve measured apparent KD of MS2 coat protein.
Output: 0.0545

Task: Quick check: apparent KD of MS2 coat protein of AGGGAACAUGAGGAUCACCCAUGUGAGGAUAUUCAAAAGAAAAGAAAAGAAAGAAGAAGAAGAAGGUACAAGAA [Neferkare Pepi II] ?
Output: 0.0369

Next, consider the following sequence.
Task: Looking for the measured apparent KD of MS2 coat protein of AACAGUACAGGAUAUACAUGAGGAUCACCCAUGUGAAAAUUAAGUGGGAAACCACAGUGUAGAAGGGUACUGAA [Mat - Exclusion 3 - Eli mod - D55] , can you help?
Output: 0.093

---

# Test system: MS2 coat protein
# TEST: apparent KD of MS2 coat protein; designed switch direction (-1 OFF switch, 1 ON switch): -1; higher = weaker reporter binding
# CONDITION_PARAMETERS: Eterna round: R95; input ligand: none
READOUT_LABEL: apparent KD of MS2 coat protein (nM)
Response body: numeric value in nM, unit text excluded.

Task: For AAGUACCGUCACGAUAGUGAUGGUACAGCAAGCAAGUGAACAUGAGGAUCACCCAUGUCCUCAAUUGCUCGUCUUAU [Sensor 3 - 72] (puzzle: Sensor v3, turn-off variant 2) , what is its reported apparent KD of MS2 coat protein?
Output: 24.1

Task: Param item = UUUUAGAGAGGAUAUAUGAUGUGAAACAUGAGGAUCACCCAUGUAAUAUUAUGGAUGUAAAUAGAAGGCUCAUUUA [JL-ex5-3.05] (puzzle: Exclusion 5) ; retrieve measured apparent KD of MS2 coat protein.
Output: 69.1

Could you now consider this next sequence?
Task: Entry UUACUAUGUCGCUUAAUAGCUUUUUGCUCGUCUUAUAUUACAUGAGGAUCACCCAUGUAGAUCAUGUGGCGUGACCU [JL ViennaUCT Maridi mod 6] (puzzle: Sensor v3, turn-off variant 2) has what apparent KD of MS2 coat protein?
Output: 237

---

# Tested on: K4 kissing-loop RNA reporter;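 also: bound reporter read as fluorescence of individual clusters on recovered sequencing chips by microscopy, with normalized cluster intensities fitted with a binding model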
# TEST: apparent KD of K4 kissing-loop reporter; higher = weaker reporter binding
# CONDITION_PARAMETERS: Eterna round: R107; input ligand: theophylline 20 uM
Lab note: anything with apparent KD of K4 kissing-loop reporter at or over 100 nM counts as True; the rest go in False.

Task: Identify whether the reported apparent KD of K4 kissing-loop reporter of the following sequence is 100 nM or greater: GCAAGGCUACAAGGAUAUGCGCGAACCUACCGCCAAGCGGCUACCGGUGAGUCAGUGAUGUUGGCUGCAGAAGGUGUGAUUGAGC [theeternabot_sameState_KL_FMN_B_45]
Output: True

Task: Given the entry GUCCACACUGCAGGAUAUGGAGAAAUAGCGAGGGAGCUUGGAAGCACGCCUCUGGCAGUGAUGUUGCCAGAAGGGCGGUGCGGCG [Dilazasole] , answer whether its apparent KD of K4 kissing-loop reporter meets or surpasses 100 nM.
Output: False

Task: Item AUUUUUUUGUCAGGAUAUUAGUGUGGGUUUGGUUUGUUAGUGAUGUUGAUAUUUGUUUUAUGUAUUUAAGAAGGGAUUUAGCGGU [zzdxemullin] with apparent KD of K4 kissing-loop reporter of 100 nM or above?
Output: True

Task: Confirm if apparent KD of K4 kissing-loop reporter reported for the sequence UAUCUAUGCUCGGCCGCCACUAGGACCGGGUAGUCUCUAGUGAUGUUAGUCUCUACGGCCGCCACUAGGACCGGGAGUGUAGAUA [KL-SSTryp-B16 #DoubleAptamer] is 100 nM or above.
Output: True
